assay: Metabolic stability test: liver microsomal stability assay; assay type: in vitro ADME, mouse; conditions: mouse liver microsomes 0.5 mg protein/mL, compound 1 µM, absence of NADPH
Positions of bridges follow the written chain, without caps; N, C: chain ends. Non-standard residues stand in square brackets, D forms with d. Residues, ends and D or L forms follow the SMILES beside them. *: point of attachment. NMeF = CN[C@@H](Cc1ccccc1)C(=O)O; NMeT = CN[C@H](C(=O)O)[C@@H](C)O; NMeD = CN[C@@H](CC(=O)O)C(=O)O; NMeL = CN[C@@H](CC(C)C)C(=O)O; NMeAbu = CC[C@H](NC)C(=O)O; NMeA = CN[C@@H](C)C(=O)O; Piperidide = C1CCN(*)CC1; Abu = CC[C@H](N)C(=O)O; Sar = CNCC(=O)O; tBu = CC(C)(C)*
RECORDED METRIC: Mouse Hepatic Microsome CLh,int NADPH(-) (µL/min/mg Protein)
Response body: numeric value in µL/min/mg Protein, unit text excluded.

Bench note: what Mouse Hepatic Microsome CLh,int NADPH(-) did CC[C@@H]1NC(=O)[C@H](Cc2ccccc2)N(C)C(=O)[C@H](COC(C)(C)C)NC(=O)[C@H](CC(C)C)N(C)C(=O)[C@H](CC(C)C)NC(=O)[C@H](C)N(C)C(=O)C[C@@H](C(=O)N2CCCCC2)N(C)C(=O)[C@H](CC(C)C)N(C)C(=O)[C@H]([C@@H](C)CC)NC(=O)[C@H](Cc2ccccc2)N(C)C(=O)[C@H]([C@@H](C)O)N(C)C(=O)[C@H](CC)N(C)C(=O)[C@H](CC(C)C)NC(=O)CN(C)C1=O [pd091] ([NMeA]L[NMeL]S(tBu)[NMeF][Abu][Sar]L[NMeAbu][NMeT][NMeF]I[NMeL][NMeD]-Piperidide; lactam N-14) show? 36.1

====

test: Metabolic stability test: liver microsomal stability assay; assay type: in vitro ADME, mouse
Starred links: 1 amine or outer side, 2 acyl side, 3 side chain; linkers in the order of their positions; H or OH if unused. Positions of bridges follow the written chain, without caps; N, C: chain ends. Non-standard residues stand in square brackets, D forms with d. Residues, ends and D or L forms follow the SMILES beside them. *: point of attachment. NMedβ3hAla = C[C@H](CC(=O)[*:2])N(C)[*:1]; NMeF = CN[C@@H](Cc1ccccc1)C(=O)O; NMeGABA = CN(CCCC(=O)[*:2])[*:1]; NMeI = CC[C@H](C)[C@H](NC)C(=O)O; hPhe = N[C@@H](CCc1ccccc1)C(=O)O; NMeβAla = CN(CCC(=O)[*:2])[*:1]; NMeD = CN[C@@H](CC(=O)O)C(=O)O; NMeL = CN[C@@H](CC(C)C)C(=O)O; NMeV = CN[C@H](C(=O)O)C(C)C; NMeAbu = CC[C@H](NC)C(=O)O; NMeA = CN[C@@H](C)C(=O)O; Piperidide = C1CCN(*)CC1; Abu = CC[C@H](N)C(=O)O; βAla = NCCC(=O)O; Sar = CNCC(=O)O; tBu = CC(C)(C)*
RECORDED METRIC: Mouse Hepatic Microsome CLh,int NADPH(-) (µL/min/mg Protein)
Response body: numeric value in µL/min/mg Protein, unit text excluded.

| COMPOUND | RECORDED METRIC | READOUT NUMBER |
| --- | --- | --- |
| CC[C@H](C)[C@@H]1NC(=O)[C@H]([C@@H](C)CC)N(C)C(=O)[C@@H](C)NC(=O)C[C@@H](C(=O)N2CCCCC2)N(C)C(=O)[C@H](Cc2ccccc2)N(C)C(=O)[C@H](C(C)C)NC(=O)CCN(C)C(=O)[C@H](CC)N(C)C(=O)[C@H](CC(C)C)N(C)C(=O)[C@H](C)NC(=O)CN(C)C(=O)[C@H](CC(C)C)N(C)C(=O)CCN(C)C(=O)[C@H](Cc2ccccc2)N(C)C1=O [pd081] ([dA][NMeI]I[NMeF][NMeβAla][NMeL][Sar]A[NMeL][NMeAbu][NMeβAla]V[NMeF][NMeD]-Piperidide; lactam N-14) | Mouse Hepatic Microsome CLh,int NADPH(-) | 5.7 |
| CC[C@H](C)[C@H]1C(=O)N(C)[C@@H](CC(C)C)C(=O)N[C@@H](CCc2ccccc2)C(=O)N(C)[C@@H](CC(C)C)C(=O)N(C)CCC(=O)N(C)[C@@H](C(C)C)C(=O)N[C@@H](CC(C)C)C(=O)N(C)[C@@H](CC(C)C)C(=O)N[C@@H]([C@@H](C)O)C(=O)N(C)CCC(=O)N(C)[C@@H](Cc2ccccc2)C(=O)N[C@@H](C(C)C)C(=O)N(C)[C@H](C(=O)N2CCCCC2)CC(=O)N(C)CC(=O)N1C [pd096] ([Sar][NMeI][NMeL][hPhe][NMeL][NMeβAla][NMeV]L[NMeL]T[NMeβAla][NMeF]V[NMeD]-Piperidide; lactam N-14) | Mouse Hepatic Microsome CLh,int NADPH(-) | 18.2 |
| CC[C@@H]1NC(=O)[C@H](CC(C)C)N(C)C(=O)CCNC(=O)[C@H](Cc2ccccc2)N(C)C(=O)[C@H](Cc2ccccc2)N(C)C(=O)CNC(=O)[C@H]([C@@H](C)CC)NC(=O)[C@H](CC(C)C)N(C)C(=O)CCCN(C)C(=O)C[C@@H](C)N(C)C(=O)[C@H](CC(C)C)NC(=O)[C@H]([C@@H](C)CC)NC(=O)[C@H](C)N(C)C(=O)[C@H](C(C)C)NC1=O [pd062] (cyclo([Abu]V[NMeA]IL[NMedβ3hAla][NMeGABA][NMeL]IG[NMeF][NMeF][βAla][NMeL])) | Mouse Hepatic Microsome CLh,int NADPH(-) | 24.1 |
| CC[C@H](C)[C@H]1C(=O)N[C@@H](CC(C)C)C(=O)N(C)CC(=O)N(C)[C@@H](CC(C)C)C(=O)N[C@@H](CC(C)C)C(=O)N(C)[C@H](C)CC(=O)N(C)[C@@H](CC(C)C)C(=O)N(C)CCC(=O)N(C)[C@@H](CC(C)C)C(=O)N[C@@H](COC(C)(C)C)C(=O)N(C)[C@@H](Cc2ccccc2)C(=O)N(C)CCC(=O)N(C)[C@@H](Cc2ccccc2)C(=O)N1C [pd144] (cyclo(L[Sar][NMeL]L[NMedβ3hAla][NMeL][NMeβAla][NMeL]S(tBu)[NMeF][NMeβAla][NMeF][NMeI])) | Mouse Hepatic Microsome CLh,int NADPH(-) | 34.0 |

Consider the record given below.
Bench note: what Mouse Hepatic Microsome CLh,int NADPH(-) did CC[C@H](C)[C@H]1C(=O)NCCC(=O)N(C)[C@@H](CC(C)C)C(=O)N[C@H](C(=O)N2CCCCC2)CC(=O)N(C)[C@@H](C)C(=O)N[C@@H](CC(C)C)C(=O)N[C@@H]([C@@H](C)O)C(=O)N(C)[C@@H](Cc2ccccc2)C(=O)NCCC(=O)N(C)[C@@H](C(C)C)C(=O)N[C@@H](CC(C)C)C(=O)N(C)[C@@H]([C@@H](C)CC)C(=O)N[C@@H](CCc2ccccc2)C(=O)N(C)CC(=O)N1C [pd024] ([NMeA]LT[NMeF][βAla][NMeV]L[NMeI][hPhe][Sar][NMeI][βAla][NMeL]D-Piperidide; lactam N-14) show? 20.0

====

test: Metabolic stability test: liver microsomal stability assay; assay type: in vitro ADME, mouse; conditions: male, pH 7.4; mouse liver microsomes 0.5 mg protein/mL, compound 1 µM, presence of NADPH; read-out: Mouse Hepatic Microsome CLh,int NADPH(+)
Positions of bridges follow the written chain, without caps; N, C: chain ends. Non-standard residues stand in square brackets, D forms with d. Residues, ends and D or L forms follow the SMILES beside them. *: point of attachment. NMeF = CN[C@@H](Cc1ccccc1)C(=O)O; NMeI = CC[C@H](C)[C@H](NC)C(=O)O; NMeD = CN[C@@H](CC(=O)O)C(=O)O; NMeL = CN[C@@H](CC(C)C)C(=O)O; NMeV = CN[C@H](C(=O)O)C(C)C; NMeA = CN[C@@H](C)C(=O)O; Piperidide = C1CCN(*)CC1; Sar = CNCC(=O)O; tBu = CC(C)(C)*
RECORDED METRIC: microsomal CLint at 1 µM (µL/min/mg)
Response body: numeric value in µL/min/mg, unit text excluded.

| COMPOUND | UNIT OF MEASUREMENT | microsomal CLint at 1 µM |
| --- | --- | --- |
| CC[C@H](C)[C@@H]1NC(=O)[C@H]([C@@H](C)CC)N(C)C(=O)[C@@H](C)NC(=O)C[C@@H](C(=O)N2CCCCC2)N(C)C(=O)[C@H](C(C)C)NC(=O)[C@H](Cc2ccccc2)N(C)C(=O)[C@H](COC(C)(C)C)NC(=O)[C@H](CC(C)C)N(C)C(=O)[C@H](C)NC(=O)CN(C)C(=O)[C@H](CC(C)C)N(C)C(=O)[C@H](C)N(C)C(=O)[C@H](Cc2ccccc2)N(C)C1=O [pd151] ([dA][NMeI]I[NMeF][NMeA][NMeL][Sar]A[NMeL]S(tBu)[NMeF]V[NMeD]-Piperidide; lactam N-13) | µL/min/mg | 29.6 |

Consider the record given below.
Bench note: what microsomal CLint at 1 µM did CC[C@H](C)[C@H]1C(=O)NCC(=O)N(C)[C@@H](CC(C)C)C(=O)N(C)[C@@H](C(C)C)C(=O)N(C)[C@@H](C)C(=O)N(C)[C@H](C(=O)N2CCCCC2)CC(=O)N(C)[C@@H](C)C(=O)N[C@@H](CC(C)C)C(=O)N(C)[C@@H](CC(C)C)C(=O)N[C@@H](COC(C)(C)C)C(=O)N(C)[C@@H](Cc2ccccc2)C(=O)N[C@@H](C)C(=O)N(C)[C@@H](Cc2ccccc2)C(=O)N1C [pd155] ([NMeA]L[NMeL]S(tBu)[NMeF]A[NMeF][NMeI]G[NMeL][NMeV][NMeA][NMeD]-Piperidide; lactam N-13) show? 48.8
